Form field: reduction in Disease Severity Index (DSI) (one value per entry).
tested on: Pyricularia oryzae IT10 strain on rice (cv. Vialone Nano); conditions: in vivo
Metric: reduction in Disease Severity Index (DSI)

{"Substance": "nOct-Aib-Lys-Leu-Aib-Gly-Lys-Leu-Aib-Gly-Ile-Lol [Pep 7]", "Result": "65-70%"}
{"Substance": "nOct-Aib—Lys-Lys-Leu-Aib-Gly-Ile-Leu-NH2 [Pep 4C2]", "Result": "65-70%"}
{"Substance": "nOct-Aib-Gly-Leu-Aib-Gly-Gly-Leu-Api-Gly-Ile-Lol [Pep 8Api]", "Result": "50-55%"}

Origin of measurements: paper PMC8551967
